Values from patent EP4733310A1

- MEASUREMENT NOTES: Pharmacokinetic profile after intravenous administration to rats
- Format: in vivo
- CONDITION SET: rat, Sprague Dawley rats, plasma, sampling up to 2 hours, FIG. 2
Square brackets hold non-standard residues; d marks the D form. Peptide text beside a SMILES is read from it. pGlu = O=C1CC[C@@H](C(=O)O)N1
PROPERTY NAME: AUC(0-t)

Please give the measured AUC(0-t) for this molecule: CC[C@H](C)[C@H](NC(=O)[C@H](Cc1ccccc1)NC(=O)[C@H](CCCNC(=N)N)NC(=O)[C@H](CC(C)C)NC(=O)[C@H](CCCNC(=N)N)NC(=O)[C@H](CO)NC(=O)[C@@H](NC(=O)[C@H](CC(C)C)NC(=O)[C@H](CC(C)C)NC(=O)[C@H](C)NC(=O)[C@@H]1CCCN1C(=O)[C@H](CCCNC(=N)N)NC(=O)[C@H](C)NC(=O)[C@H](CCC(=O)O)NC(=O)[C@@H]1CCC(=O)N1)[C@@H](C)O)C(=O)N1CCC[C@H]1C(=O)N[C@@H](CCCCN)C(N)=O [GV2001] ([pGlu]EARPALLTSRLRFIPK-NH2) 107 ng·h/mL
